Below is a list of entries, each paired with its recorded recombinant barcode read abundance (log10) value.
- ASSAY_NOTES: recombinant barcode read abundance after kanamycin selection (control-corrected) (log10(CPM+1)); higher = more efficient recombination; sequences stand for … in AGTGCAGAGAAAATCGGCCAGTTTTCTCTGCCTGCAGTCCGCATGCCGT…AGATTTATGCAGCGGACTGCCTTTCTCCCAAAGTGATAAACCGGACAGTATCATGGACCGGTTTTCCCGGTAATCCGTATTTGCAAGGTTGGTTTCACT; site = the 11-nt target
ASSAY_READOUT: recombinant barcode read abundance (log10)

{"MACROMOLECULE_SEQUENCE": "TAGACTACTTGGGTTCTAACCTGTTGCTT (site TAGACTACTGA)", "RESULT": 0.0122}
{"MACROMOLECULE_SEQUENCE": "ACGTGGCCTTGGGTTCTAACCTGTTGCTG (site ACGTGGCCTCA)", "RESULT": 1.05}
{"MACROMOLECULE_SEQUENCE": "TCCATCCCTTGGGTTCTAACCTGTTGCTA (site TCCAGTCCTTA)", "RESULT": 0.0637}
{"MACROMOLECULE_SEQUENCE": "CTACAGCCTTGGGTTCTAACCTGTTGCTT (site CTACAGCCTAA)", "RESULT": 0.798}
{"MACROMOLECULE_SEQUENCE": "TCCCATACTTGGGTTCTAACCTGTTGCCT (site TCCCATACTAG)", "RESULT": 0.493}

====

Here, each record is paired with measured recombinant UMI read abundance (log10) data.
- ASSAY_NOTES: recombinant UMI read abundance after kanamycin selection (control-corrected) (log10(CPM+1)); higher = more efficient recombination; extreme values may be limits of the assay; sequences stand for … in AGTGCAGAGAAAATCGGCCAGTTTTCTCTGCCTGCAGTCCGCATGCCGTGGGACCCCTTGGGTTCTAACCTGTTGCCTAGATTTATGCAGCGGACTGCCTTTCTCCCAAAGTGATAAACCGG…AGGTTGGTTTCACT; site = the 11-nt donor
ASSAY_READOUT: recombinant UMI read abundance (log10)

{"MACROMOLECULE_SEQUENCE": "GCAGGCCCATGGACCGGTTTTCCCGGTAATCCGTATTTGCC (site GCAGGCCCTGG)", "RESULT": 0.86}
{"MACROMOLECULE_SEQUENCE": "AAGCAGTCATGGACCGGTTTTCCCGGTAATCCGTATTTGAC (site AAGCAGTCTGT)", "RESULT": 2.88}
{"MACROMOLECULE_SEQUENCE": "AGCCTATCATGGACCGGTTTTCCCGGTAATCCGTATTTGTT (site AGCCTACCTAA)", "RESULT": 0.00813}
{"MACROMOLECULE_SEQUENCE": "AATAGAACATGGACCGGTTTTCCCGGTAATCCGTATTTGAG (site AATAGAACTCT)", "RESULT": 2}
{"MACROMOLECULE_SEQUENCE": "GCTCTAGCATGGACCGGTTTTCCCGGTAATCCGTATTTGAC (site GCTCTAGCTGT)", "RESULT": 1.67}
{"MACROMOLECULE_SEQUENCE": "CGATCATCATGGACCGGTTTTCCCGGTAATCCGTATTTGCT (site CGGTCAGCTAG)", "RESULT": 0.0144}
{"MACROMOLECULE_SEQUENCE": "GAAGATTCATGGACCGGTTTTCCCGGTAATCCGTATTTGTC (site GAAGATTCTAA)", "RESULT": 0.564}
{"MACROMOLECULE_SEQUENCE": "ATGCTACCATGGACCGGTTTTCCCGGTAATCCGTATTTGCT (site CTGCTACCTAG)", "RESULT": 0}
{"MACROMOLECULE_SEQUENCE": "GGGCCTGCATGGACCGGTTTTCCCGGTAATCCGTATTTGTG (site GGGCCTGCTCA)", "RESULT": 0.38}

====

- ASSAY_NOTES: recombinant barcode read abundance after kanamycin selection (control-corrected) (log10(CPM+1)); higher = more efficient recombination; sequences stand for … in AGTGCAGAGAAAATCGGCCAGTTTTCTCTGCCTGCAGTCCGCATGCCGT…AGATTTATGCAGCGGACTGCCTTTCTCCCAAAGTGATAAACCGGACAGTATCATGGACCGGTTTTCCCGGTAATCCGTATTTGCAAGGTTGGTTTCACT; site = the 11-nt target
Would you please tag the item 1.0 when its recombinant barcode read abundance (log10) is 0.07 or above, and 0.0 when it is below?

{"MACROMOLECULE_SEQUENCE": "ATAAGGACTTGGGTTCTAACCTGTTGCTA (site ATAGGGACTTA)", "ASSIGNED_CATEGORY": 1.0}
{"MACROMOLECULE_SEQUENCE": "TATTAACCTTGGGTTCTAACCTGTTGCCT (site TATTACCCTAG)", "ASSIGNED_CATEGORY": 1.0}
{"MACROMOLECULE_SEQUENCE": "GAACCTTCTTGGGTTCTAACCTGTTGCGG (site TTCTACACTAT)", "ASSIGNED_CATEGORY": 0.0}
{"MACROMOLECULE_SEQUENCE": "TAATTGCCTTGGGTTCTAACCTGTTGCCT (site TATTTGCCTAG)", "ASSIGNED_CATEGORY": 1.0}
{"MACROMOLECULE_SEQUENCE": "GGTAAGACTTGGGTTCTAACCTGTTGCGG (site GCTAAGACTCA)", "ASSIGNED_CATEGORY": 0.0}
{"MACROMOLECULE_SEQUENCE": "TGACGTCCTTGGGTTCTAACCTGTTGCTT (site TGACGTCCTAG)", "ASSIGNED_CATEGORY": 1.0}
{"MACROMOLECULE_SEQUENCE": "GTGTCCTCTTGGGTTCTAACCTGTTGCGT (site GTGTCCTCTAC)", "ASSIGNED_CATEGORY": 1.0}
{"MACROMOLECULE_SEQUENCE": "GATACGCCTTGGGTTCTAACCTGTTGCCT (site GATACGACTAG)", "ASSIGNED_CATEGORY": 0.0}
{"MACROMOLECULE_SEQUENCE": "ACCGAGACTTGGGTTCTAACCTGTTGCGG (site ACCGAGACTCC)", "ASSIGNED_CATEGORY": 1.0}
{"MACROMOLECULE_SEQUENCE": "CCTGCGACTTGGGTTCTAACCTGTTGCAC (site CCTGCGACTGT)", "ASSIGNED_CATEGORY": 1.0}

====

- ASSAY_NOTES: recombinant UMI read abundance after kanamycin selection (control-corrected) (log10(CPM+1)); higher = more efficient recombination; extreme values may be limits of the assay; sequences stand for … in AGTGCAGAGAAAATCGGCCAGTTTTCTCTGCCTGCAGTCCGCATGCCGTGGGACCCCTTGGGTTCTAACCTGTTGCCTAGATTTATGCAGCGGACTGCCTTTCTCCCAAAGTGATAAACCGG…AGGTTGGTTTCACT; site = the 11-nt donor

{"MACROMOLECULE_SEQUENCE": "CTAGTAACATGGACCGGTTTTCCCGGTAATCCGTATTTGGA (site CTACTAACTTC)", "recombinant UMI read abundance (log10)": 0.119}
{"MACROMOLECULE_SEQUENCE": "ATACGAACATGGACCGGTTTTCCCGGTAATCCGTATTTGTC (site AGACGAACTGA)", "recombinant UMI read abundance (log10)": 0}
{"MACROMOLECULE_SEQUENCE": "ACTTGTGCATGGACCGGTTTTCCCGGTAATCCGTATTTGGT (site ACTGGTGCTAC)", "recombinant UMI read abundance (log10)": 0.211}
{"MACROMOLECULE_SEQUENCE": "AGAATGGCATGGACCGGTTTTCCCGGTAATCCGTATTTGCT (site AGAATGGCTAG)", "recombinant UMI read abundance (log10)": 2.19}
{"MACROMOLECULE_SEQUENCE": "GCCACGCCATGGACCGGTTTTCCCGGTAATCCGTATTTGGA (site GCCACGCCTTA)", "recombinant UMI read abundance (log10)": 0.00593}
{"MACROMOLECULE_SEQUENCE": "ATCAATACATGGACCGGTTTTCCCGGTAATCCGTATTTGAC (site ATCTATACTGT)", "recombinant UMI read abundance (log10)": 0}
{"MACROMOLECULE_SEQUENCE": "AGGAAGCCATGGACCGGTTTTCCCGGTAATCCGTATTTGAA (site AGGAAGACTTG)", "recombinant UMI read abundance (log10)": 0}
{"MACROMOLECULE_SEQUENCE": "AGGTACTCATGGACCGGTTTTCCCGGTAATCCGTATTTGAC (site AGGTACTCTGT)", "recombinant UMI read abundance (log10)": 3.57}
{"MACROMOLECULE_SEQUENCE": "GTAGTCTCATGGACCGGTTTTCCCGGTAATCCGTATTTGCG (site GTAGTCACTCG)", "recombinant UMI read abundance (log10)": 1.31}
{"MACROMOLECULE_SEQUENCE": "GTATTCGCATGGACCGGTTTTCCCGGTAATCCGTATTTGCG (site GTAGTCGCTCG)", "recombinant UMI read abundance (log10)": 0.00852}
{"MACROMOLECULE_SEQUENCE": "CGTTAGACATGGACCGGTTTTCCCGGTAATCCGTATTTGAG (site AGTTAGACTCT)", "recombinant UMI read abundance (log10)": 0.0858}
{"MACROMOLECULE_SEQUENCE": "TAAAGTCCATGGACCGGTTTTCCCGGTAATCCGTATTTGTA (site TACAGTCCTTA)", "recombinant UMI read abundance (log10)": 0}
{"MACROMOLECULE_SEQUENCE": "AGGACCACATGGACCGGTTTTCCCGGTAATCCGTATTTGAC (site AGGACAACTGT)", "recombinant UMI read abundance (log10)": 0.0127}
{"MACROMOLECULE_SEQUENCE": "ACAGTATCATGGACCGGTTTTCCCGGTAATCCGTATTTGCG (site ACAGTATCTGG)", "recombinant UMI read abundance (log10)": 2.14}
{"MACROMOLECULE_SEQUENCE": "ACAGTATCATGGACCGGTTTTCCCGGTAATCCGTATTTGTG (site ACAGTATCTTG)", "recombinant UMI read abundance (log10)": 1.03}
{"MACROMOLECULE_SEQUENCE": "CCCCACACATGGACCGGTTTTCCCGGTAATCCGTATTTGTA (site CCCCACCCTTA)", "recombinant UMI read abundance (log10)": 0.00838}
{"MACROMOLECULE_SEQUENCE": "TGATAGACATGGACCGGTTTTCCCGGTAATCCGTATTTGCC (site CGATAGACTGG)", "recombinant UMI read abundance (log10)": 2.02}
{"MACROMOLECULE_SEQUENCE": "ATCCCAGCATGGACCGGTTTTCCCGGTAATCCGTATTTGAG (site ATCCTAGCTCT)", "recombinant UMI read abundance (log10)": 0}
